Exercise: state measured pKi for each of the compounds provided.
- testTarget: purified recombinant rat FAAH (Rattus norvegicus)
- Construct: The truncated rat FAAH (rFAAH) was expressed in E. coli and purified as described; made in house; host or cells: Escherichia coli
- Sequence (P97612 30-579 limits assumed): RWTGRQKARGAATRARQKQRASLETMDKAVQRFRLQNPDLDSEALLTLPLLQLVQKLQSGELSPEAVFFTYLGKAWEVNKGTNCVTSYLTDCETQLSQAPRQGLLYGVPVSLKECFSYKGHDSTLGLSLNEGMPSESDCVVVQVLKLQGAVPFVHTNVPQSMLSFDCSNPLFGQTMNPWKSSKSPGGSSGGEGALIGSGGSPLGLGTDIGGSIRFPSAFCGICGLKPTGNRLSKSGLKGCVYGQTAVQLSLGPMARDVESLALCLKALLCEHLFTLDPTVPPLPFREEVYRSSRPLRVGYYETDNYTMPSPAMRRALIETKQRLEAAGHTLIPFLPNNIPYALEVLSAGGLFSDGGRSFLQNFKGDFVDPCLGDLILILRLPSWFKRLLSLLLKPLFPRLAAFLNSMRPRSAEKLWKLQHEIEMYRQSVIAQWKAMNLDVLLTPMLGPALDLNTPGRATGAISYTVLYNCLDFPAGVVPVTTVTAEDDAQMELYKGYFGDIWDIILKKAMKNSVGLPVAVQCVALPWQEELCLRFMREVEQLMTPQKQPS
- measurementNotes: FAAH inhibition enzyme assay (14C-oleamide hydrolysis, Dixon plot), rat enzyme
- Format: biochemical
- experimentalContext: Table 4; read-out: FAAH Ki
To interpret pKi, take it as minus log10 of a concentration measured in moles per litre.

Req: State, in one line, measured pKi of N#Cc1cccc(-c2ccc(C(=O)CCCCCCc3ccccc3)nn2)n1 [13h]
Resp: 6.41

Req: Fill in reported pKi for this entry: `O=C(CCCCCCc1ccccc1)c1nnc(-c2ccccn2)o1`
Resp: 9.54

Req: Read the entry `O=C(CCCCCCc1ccccc1)c1ncno1` and write its reported pKi.
Resp: 9.00

Req: Supply reported pKi belonging to this compound: O=C(CCCCCCc1ccccc1)c1ncon1 [10a]
Resp: 8.15

Req: // fetch pKi given entry O=C(CCCCCCc1ccccc1)c1nccs1 [11a, 7-Phenyl-1-(thiazol-2-yl)-heptan-1-one]
Resp: 6.10

Req: In one line, give reported pKi of the entry `O=C(CCCCCCc1ccccc1)c1ncc(-c2ccco2)o1` .
Resp: 7.92

Req: Indicate its recorded pKi; the compound in question is COC(=O)c1nc(C(=O)CCCCCCc2ccccc2)no1 [10h]
Resp: 8.15

Req: State its pKi for this compound: `O=C(CCCCCCc1ccccc1)c1ncc(-c2cccs2)o1`
Resp: 7.26

Req: Given the compound `COC(=O)c1cccc(-c2nnc(C(=O)CCCCCCc3ccccc3)o2)n1` , write its reported pKi.
Resp: 8.52

Req: Tell us which pKi value is on record for `O=C(CCCCCCc1ccccc1)c1nnc(-c2ccccc2)o1`
Resp: 8.66
